Assay: Protein binding in rat plasma at 10 ug/mL
Type: ADME, cell-free
Conditions: read-out: PPB

- LINE_NOTATION: "CCC[C@@H](C)N(c1cc(Cl)ccc1CO)S(=O)(=O)c1ccc(Cl)cc1"
  fraction unbound at 10 ug/mL: "< 0.01"

====

Biological target: Gamma-secretase
Assay: Inhibition of gamma secretase-mediated beta-APP cleavage in human H4 cells assessed by measuring Abeta40 production by ELISA
Assign a class from recorded IC50; defined classes: bin A: < 50 nM; bin B: ≥ 50 nM and < 600 nM; bin C: ≥ 600 nM

- MOLECULE: "C=C(C)CN(c1cc(Cl)ccc1CO)S(=O)(=O)c1ccc(C)cc1"
  DISCRETE_LABEL: "bin B"
- MOLECULE: "CC(c1ccc(Cl)cc1)N(c1cc(Cl)ccc1CO)S(=O)(=O)c1ccc(Cl)cc1 (configuration not stated)"
  DISCRETE_LABEL: "bin A"
- MOLECULE: "Cc1ccc(S(=O)(=O)N(CC(C)C)c2cc(Cl)ccc2CO)cc1"
  DISCRETE_LABEL: "bin C"
- MOLECULE: "CC[C@@H](C)N(c1cc(Cl)ccc1CO)S(=O)(=O)c1ccc(C)cc1"
  DISCRETE_LABEL: "bin B"
- MOLECULE: "CCCC(C)N(c1cc(Cl)ccc1CO)S(=O)(=O)c1cccc(C)c1 (configuration not stated)"
  DISCRETE_LABEL: "bin C"
- MOLECULE: "C[C@H](CCc1ccccc1)N(c1cc(Cl)ccc1CO)S(=O)(=O)c1ccc(Cl)cc1"
  DISCRETE_LABEL: "bin A"
- MOLECULE: "CCC[C@@H](C)N(c1cc(Cl)ccc1CO)S(=O)(=O)c1ccc(C)cc1"
  DISCRETE_LABEL: "bin A"
- MOLECULE: "CC(CCF)N(c1cc(Cl)ccc1CO)S(=O)(=O)c1ccc(Cl)cc1 (configuration not stated)"
  DISCRETE_LABEL: "bin A"
- MOLECULE: "CCN(c1cc(Cl)ccc1CO)S(=O)(=O)c1ccc(Cl)cc1"
  DISCRETE_LABEL: "bin A"
- MOLECULE: "CCCC(C)N(c1cc(Cl)ccc1CO)S(=O)(=O)c1ccc(C(C)C)cc1 (configuration not stated)"
  DISCRETE_LABEL: "bin C"
- MOLECULE: "CCCC(C)N(c1cc(Cl)ccc1CO)S(=O)(=O)c1ccc(CC)cc1 (configuration not stated)"
  DISCRETE_LABEL: "bin B"
- MOLECULE: "CC(C)CC(C)N(c1cc(Cl)ccc1CO)S(=O)(=O)c1ccc(Cl)cc1 (configuration not stated)"
  DISCRETE_LABEL: "bin A"
- MOLECULE: "CC(c1ccc2ccccc2c1)N(c1cc(Cl)ccc1CO)S(=O)(=O)c1ccc(Cl)cc1 (configuration not stated)"
  DISCRETE_LABEL: "bin B"
- MOLECULE: "CC[C@H](C)N(c1cc(Cl)ccc1CO)S(=O)(=O)c1ccc(C)cc1"
  DISCRETE_LABEL: "bin C"
- MOLECULE: "CCCC(C)N(c1cc(Cl)ccc1CO)S(=O)(=O)c1ccc(C)cc1 (configuration not stated)"
  DISCRETE_LABEL: "bin A"
- MOLECULE: "CCCCN(c1cc(Cl)ccc1CO)S(=O)(=O)c1ccc(Cl)cc1"
  DISCRETE_LABEL: "bin B"
- MOLECULE: "CC(Cc1ccccc1)N(c1cc(Cl)ccc1CO)S(=O)(=O)c1ccc(Cl)cc1 (configuration not stated)"
  DISCRETE_LABEL: "bin A"
- MOLECULE: "CCCN(c1cc(Cl)ccc1CO)S(=O)(=O)c1ccc(C)cc1"
  DISCRETE_LABEL: "bin C"
- MOLECULE: "CCC[C@H](C)N(c1cc(Cl)ccc1CO)S(=O)(=O)c1ccc(C)cc1"
  DISCRETE_LABEL: "bin C"
- MOLECULE: "CC(C1CCCC1)N(c1cc(Cl)ccc1CO)S(=O)(=O)c1ccc(Cl)cc1 (configuration not stated)"
  DISCRETE_LABEL: "bin A"
- MOLECULE: "CCCC(C)N(c1cc(Cl)ccc1CO)S(=O)(=O)c1ccc(C(F)(F)F)cc1 (configuration not stated)"
  DISCRETE_LABEL: "bin B"
- MOLECULE: "Cc1ccc(S(=O)(=O)N(c2cc(Cl)ccc2CO)C(C)C2CCCCC2)cc1 (configuration not stated)"
  DISCRETE_LABEL: "bin B"
- MOLECULE: "CCCC(C)N(c1cc(Cl)ccc1CO)S(=O)(=O)c1ccc(F)cc1 (configuration not stated)"
  DISCRETE_LABEL: "bin B"
- MOLECULE: "CCC(CC)N(c1cc(Cl)ccc1CO)S(=O)(=O)c1ccc(C)cc1"
  DISCRETE_LABEL: "bin C"
- MOLECULE: "CC(CCCF)N(c1cc(Cl)ccc1CO)S(=O)(=O)c1ccc(Cl)cc1 (configuration not stated)"
  DISCRETE_LABEL: "bin A"
- MOLECULE: "CCN(c1cc(Cl)ccc1CO)S(=O)(=O)c1ccc(C)cc1"
  DISCRETE_LABEL: "bin C"
- MOLECULE: "C/C=C/C(C)N(c1cc(Cl)ccc1CO)S(=O)(=O)c1ccc(Cl)cc1 (configuration not stated)"
  DISCRETE_LABEL: "bin B"
- MOLECULE: "CCCC[C@@H](C)N(c1cc(Cl)ccc1CO)S(=O)(=O)c1ccc(Cl)cc1"
  DISCRETE_LABEL: "bin A"
- MOLECULE: "CCCC(C)N(c1cc(Cl)ccc1CO)S(=O)(=O)c1ccccc1 (configuration not stated)"
  DISCRETE_LABEL: "bin C"
- MOLECULE: "Cc1ccc(S(=O)(=O)N(c2cc(Cl)ccc2CO)C(C)CC(C)(C)C)cc1 (configuration not stated)"
  DISCRETE_LABEL: "bin B"
- MOLECULE: "CC(C1CCCCC1)N(c1cc(Cl)ccc1CO)S(=O)(=O)c1ccc(Cl)cc1 (configuration not stated)"
  DISCRETE_LABEL: "bin A"
- MOLECULE: "CCCC(C)N(c1cc(Cl)ccc1CO)S(=O)(=O)c1ccc(Cl)cc1Cl (configuration not stated)"
  DISCRETE_LABEL: "bin B"
- MOLECULE: "CCCC(C)N(c1cc(Cl)ccc1CO)S(=O)(=O)c1c(Cl)cc(Cl)cc1Cl (configuration not stated)"
  DISCRETE_LABEL: "bin C"
- MOLECULE: "CCCC(C)N(c1cc(Cl)ccc1CO)S(=O)(=O)c1ccc(Br)cc1 (configuration not stated)"
  DISCRETE_LABEL: "bin B"
- MOLECULE: "CCCC(C)N(c1cc(Cl)ccc1CO)S(=O)(=O)c1ccc(Cl)c(Cl)c1 (configuration not stated)"
  DISCRETE_LABEL: "bin B"
- MOLECULE: "Cc1ccc(S(=O)(=O)N(CCCC(C)C)c2cc(Cl)ccc2CO)cc1"
  DISCRETE_LABEL: "bin C"
- MOLECULE: "Cc1ccc(S(=O)(=O)N(CCC(C)(C)C)c2cc(Cl)ccc2CO)cc1"
  DISCRETE_LABEL: "bin C"
- MOLECULE: "CCCC(C)N(c1cc(Cl)ccc1CO)S(=O)(=O)c1ccc(C#N)cc1 (configuration not stated)"
  DISCRETE_LABEL: "bin B"
- MOLECULE: "Cc1ccc(S(=O)(=O)N(CC2CCCCC2)c2cc(Cl)ccc2CO)cc1"
  DISCRETE_LABEL: "bin C"
- MOLECULE: "CCCC(C)N(c1cc(Cl)ccc1CO)S(=O)(=O)c1ccc(OC)cc1 (configuration not stated)"
  DISCRETE_LABEL: "bin C"
- MOLECULE: "CCCC(C)N(c1cc(Cl)ccc1CO)S(=O)(=O)c1ccc(Cl)cc1 (configuration not stated)"
  DISCRETE_LABEL: "bin A"

====

Experiment: Protein binding in mouse plasma at 10 ug/mL
Format: ADME, cell-free
Conditions: read-out: PPB
MEASURED_ATTRIBUTE: fraction unbound at 10 ug/mL

- LINE_NOTATION: "CCC[C@@H](C)N(c1cc(Cl)ccc1CO)S(=O)(=O)c1ccc(Cl)cc1"
  MEASURED_RESULT: "< 0.01"

====

Assay: Drug level in Tg2576 betaAPP swedish transgenic mouse brain at 500 umol/kg, po after 3 hrs
Format: ADME, organism-based
Details: read-out: Drug uptake

- LINE_NOTATION: "CCC[C@@H](C)N(c1cc(Cl)ccc1CO)S(=O)(=O)c1ccc(Cl)cc1"
  concentration at 3 h / µM: 5.2

====

Test: Drug level in Tg2576 betaAPP swedish transgenic mouse plasma at 500 umol/kg, po after 3 hrs
Type: ADME, organism-based

- LINE_NOTATION: "CCC[C@@H](C)N(c1cc(Cl)ccc1CO)S(=O)(=O)c1ccc(Cl)cc1"
  UNIT_DESCRIPTOR: "nM"
  concentration at 3 h: 1600
